Entries and their measured Cross-reactivity (%) follow.
system name: T1, Human Id2: Histidine (human, UniProt Q02363 1-134, limits assumed)
T1 construct: Fusion protein made in E. coli from vector pGW07; also called h-Id2: His; not shown: His tag
T1 sequence (looked up): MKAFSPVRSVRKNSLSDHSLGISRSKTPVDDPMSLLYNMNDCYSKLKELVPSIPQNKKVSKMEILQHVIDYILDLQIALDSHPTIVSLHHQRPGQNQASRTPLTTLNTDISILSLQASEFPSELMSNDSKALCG
experimental protocol: ELISA on coated wells, summary
measurement kind: Cross-reactivity (%)

{"columns": ["binder", "measurement kind", "result"],
 "data": [
  ["rabbit monoclonal anti-mouse/human Id3, clone #BCH-4/#16-1 (antibody, V domains shown, Rabbit IgG from a rabbit hybridoma; also called m/h Id3 MoAb 16-1) VH: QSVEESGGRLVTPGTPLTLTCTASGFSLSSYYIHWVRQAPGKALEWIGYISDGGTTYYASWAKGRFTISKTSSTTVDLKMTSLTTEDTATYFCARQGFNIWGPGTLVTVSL VL: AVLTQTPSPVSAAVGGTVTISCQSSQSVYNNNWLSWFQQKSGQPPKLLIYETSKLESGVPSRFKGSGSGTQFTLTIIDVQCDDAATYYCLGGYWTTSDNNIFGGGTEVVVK", "Cross-reactivity (%)", "< 1%"],
  ["rabbit monoclonal anti-mouse/human Id3, clone #BCH-4/#17-3 (antibody, V domains shown, Rabbit IgG from a rabbit hybridoma; also called m/h Id3 MoAb 17-3; BCH-3/#17-3) VH: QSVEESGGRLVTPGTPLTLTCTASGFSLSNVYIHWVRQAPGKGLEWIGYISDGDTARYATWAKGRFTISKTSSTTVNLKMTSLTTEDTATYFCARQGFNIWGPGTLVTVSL VL: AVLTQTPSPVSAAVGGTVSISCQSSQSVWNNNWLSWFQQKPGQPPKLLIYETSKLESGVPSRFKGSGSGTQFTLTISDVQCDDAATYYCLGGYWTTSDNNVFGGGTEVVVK", "Cross-reactivity (%)", "< 1%"],
  ["rabbit monoclonal anti-mouse/human Id3, clone #BCH-4/#42-1 (antibody, V domains shown, Rabbit IgG from a rabbit hybridoma; also called m/h Id3 MoAb 42-1) VH: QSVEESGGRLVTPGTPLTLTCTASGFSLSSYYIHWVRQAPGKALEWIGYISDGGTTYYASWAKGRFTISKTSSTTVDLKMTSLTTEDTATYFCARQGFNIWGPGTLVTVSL VL: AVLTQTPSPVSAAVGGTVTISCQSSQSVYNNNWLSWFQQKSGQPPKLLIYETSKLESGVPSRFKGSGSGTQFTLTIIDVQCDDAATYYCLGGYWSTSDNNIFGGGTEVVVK", "Cross-reactivity (%)", "< 1%"]
]}
